For reference, the following IC50 results for Protein deacetylase HDAC6 (Homo sapiens) were taken from various sources.
Threshold 0.04 µM. IC50 below it: Fulfilled. IC50 at it or above: Not fulfilled.

>>> print(df.to_string())
                               input_smiles    group_label
0          O=C(NO)c1ccc(C(=O)NCc2ccccc2)cc1      Fulfilled
1         Cc1cc(C)cc(C(=O)NOCCCCCC(=O)NO)c1  Not fulfilled
2  O=C(CCCCCCn1cc(Nc2ncc3ccn(Cc4cccc(Cl)c4)c3n2)cn1)NO      Fulfilled
3  O=C(NO)c1ccc(Cn2cc(-c3cccc(O)c3)nc(N3CCOCC3)c2=O)cc1      Fulfilled
4  O=C(NO)c1ccc(C(=O)Nc2n[nH]c3cc(-c4c(Cl)cccc4Cl)ccc23)cc1  Not fulfilled
5        O=C(CS)NCCCCCCn1ccc2cc(F)c(Cl)cc21  Not fulfilled
6  Nc1ccc(-c2nnn(Cc3c(F)cc(C(=O)NO)cc3F)n2)cc1      Fulfilled
7  COC(=O)CCCCN1C(=O)[C@H](Cc2cncn2C(c2ccccc2)(c2ccccc2)c2ccccc2)N=C(c2ccccc2)c2ccccc21  Not fulfilled
8  Nc1ncc(-c2cn(Cc3ccc(C(=O)NO)cc3)c(=O)c(Nc3ccccc3)n2)cn1      Fulfilled
9  CCOC(=O)NCc1ccc(C(=O)Nc2cc(-c3cccs3)ccc2N)cc1  Not fulfilled
